procedure summary: Trial B: pharmacokinetics following single and repeated doses in healthy young male subjects
Format: in vivo, humans
condition summary: male, human, plasma, oral; last dose, repeated once daily, all dosages; read-out: median tmax
observed property: Tmax

{"columns": ["compound", "result"],
 "data": [
  ["NC(=O)N1c2ccccc2C[C@H](O)c2ccccc21 [eslicarbazepine]", "2 to 3.5 h"]
]}

* * *

procedure summary: Trial B: pharmacokinetics following single and repeated doses in healthy young male subjects
Assay type: in vivo, humans
condition summary: male, human, in vivo, oral, 1200 mg, single dose 1200 mg eslicarbazepine acetate, n=6; read-out: Mean apparent t½ (%CV) (converted)
observed property: half-life (h)

{"columns": ["compound", "observed property", "number"],
 "data": [
  ["NC(=O)N1c2ccccc2C[C@H](O)c2ccccc21 [eslicarbazepine]", "half-life", 16.5]
]}

* * *

procedure summary: Trial B: pharmacokinetics following single and repeated doses in healthy young male subjects
Type: in vivo, humans
condition summary: male, human, in vivo, oral; single dose 200 mg eslicarbazepine acetate, n=6; read-out: Median tmax (range)
Procedure: The study integrated the results of three double-blind, randomized, placebo-controlled trials. […] The pharmacokinetics of eslicarbazepine acetate following repeated doses were measured by administering repeated oral doses ranging from 400 mg to 2400 mg of eslicarbazepine acetate to healthy young male subjects (6 subjects per dose) over a period of 8 days. […]

{"columns": ["compound", "Tmax (h)"],
 "data": [
  ["NC(=O)N1c2ccccc2C[C@H](O)c2ccccc21 [eslicarbazepine]", 1.5]
]}

* * *

procedure summary: Trial B: pharmacokinetics following single and repeated doses in healthy young male subjects
Type: in vivo, humans
condition summary: male, human, plasma, oral, 20 mg, single dose 20 mg eslicarbazepine acetate, n=6; read-out: Mean AUC0-24h (%CV)

{"columns": ["compound", "AUC(0-t) / ng·h/mL"],
 "data": [
  ["NC(=O)N1c2ccccc2C[C@H](O)c2ccccc21 [eslicarbazepine]", 2400]
]}

* * *

procedure summary: Trial B: pharmacokinetics following single and repeated doses in healthy young male subjects
Type: in vivo, humans
condition summary: male, human, in vivo, oral, 50 mg, single dose 50 mg eslicarbazepine acetate, n=6; read-out: Mean AUC0-24h (%CV)
observed property: AUC(0-t) (ng·h/mL)

{"columns": ["molecule", "observed property", "number"],
 "data": [
  ["NC(=O)N1c2ccccc2C[C@H](O)c2ccccc21 [eslicarbazepine]", "AUC(0-t)", 6700]
]}

* * *

procedure summary: Trial B: pharmacokinetics following single and repeated doses in healthy young male subjects
Type: in vivo, humans
condition summary: male, human, plasma, oral; single dose 1800 mg eslicarbazepine acetate, n=6; read-out: Median tmax (range)
observed property: Tmax (h)

{"columns": ["molecule", "number"],
 "data": [
  ["NC(=O)N1c2ccccc2C[C@H](O)c2ccccc21 [eslicarbazepine]", 3.5]
]}

* * *

procedure summary: Trial B: pharmacokinetics following single and repeated doses in healthy young male subjects
Assay type: in vivo, humans
condition summary: male, human, in vivo, oral; single dose 50 mg eslicarbazepine acetate, n=6; read-out: Median tmax (range)
observed property: Tmax

{"columns": ["compound", "result"],
 "data": [
  ["NC(=O)N1c2ccccc2C[C@H](O)c2ccccc21 [eslicarbazepine]", "48 min"]
]}

* * *

procedure summary: Trial B: pharmacokinetics following single and repeated doses in healthy young male subjects
Assay type: in vivo, humans
condition summary: male, human, in vivo, oral, 2400 mg, last dose of 8-day repeated 2400 mg o.d. eslicarbazepine acetate, n=6; read-out: Mean AUC0-24h (%CV)

{"columns": ["molecule", "AUC(0-t)"],
 "data": [
  ["NC(=O)N1c2ccccc2C[C@H](O)c2ccccc21 [eslicarbazepine]", "906 µg·h/mL"]
]}

* * *

procedure summary: Trial B: pharmacokinetics following single and repeated doses in healthy young male subjects
Type: in vivo, humans
condition summary: male, human, plasma, oral; single dose 2400 mg eslicarbazepine acetate, n=6; read-out: Median tmax (range)

{"columns": ["compound", "Tmax, h"],
 "data": [
  ["NC(=O)N1c2ccccc2C[C@H](O)c2ccccc21 [eslicarbazepine]", 3]
]}

* * *

procedure summary: Trial B: pharmacokinetics following single and repeated doses in healthy young male subjects
Format: in vivo, humans
condition summary: male, human, in vivo, oral, 600 mg, single dose 600 mg eslicarbazepine acetate, n=6; read-out: Mean Cmax (%CV)
Description: The study integrated the results of three double-blind, randomized, placebo-controlled trials. […] The pharmacokinetics of eslicarbazepine acetate following repeated doses were measured by administering repeated oral doses ranging from 400 mg to 2400 mg of eslicarbazepine acetate to healthy young male subjects (6 subjects per dose) over a period of 8 days. […]
observed property: Cmax (ng/mL)

{"columns": ["molecule", "number"],
 "data": [
  ["NC(=O)N1c2ccccc2C[C@H](O)c2ccccc21 [eslicarbazepine]", 8500]
]}

* * *

procedure summary: Trial B: pharmacokinetics following single and repeated doses in healthy young male subjects
Assay type: in vivo, humans
condition summary: male, human, in vivo, oral; single dose 900 mg eslicarbazepine acetate, n=6; read-out: Median tmax (range)

{"columns": ["compound", "Tmax [h]"],
 "data": [
  ["NC(=O)N1c2ccccc2C[C@H](O)c2ccccc21 [eslicarbazepine]", 2.3]
]}

* * *

procedure summary: Trial B: pharmacokinetics following single and repeated doses in healthy young male subjects
Assay type: in vivo, humans
condition summary: male, human, in vivo, oral, 900 mg, single dose 900 mg eslicarbazepine acetate, n=6; read-out: Mean AUC0-24h (%CV)

{"columns": ["molecule", "AUC(0-t)"],
 "data": [
  ["NC(=O)N1c2ccccc2C[C@H](O)c2ccccc21 [eslicarbazepine]", "210 µg·h/mL"]
]}

* * *

procedure summary: Trial B: pharmacokinetics following single and repeated doses in healthy young male subjects
Type: in vivo, humans
condition summary: male, human, in vivo, oral, 400 mg, last dose of 8-day repeated 400 mg o.d. eslicarbazepine acetate, n=6; read-out: Mean AUC0-24h (%CV)
observed property: AUC(0-t)

{"columns": ["compound", "observed property", "result"],
 "data": [
  ["NC(=O)N1c2ccccc2C[C@H](O)c2ccccc21 [eslicarbazepine]", "AUC(0-t)", "126 µg·h/mL"]
]}

* * *

procedure summary: Trial B: pharmacokinetics following single and repeated doses in healthy young male subjects
Format: in vivo, humans
condition summary: male, human, plasma, oral, 2400 mg, single dose 2400 mg eslicarbazepine acetate, n=6; read-out: Mean Cmax (%CV)

{"columns": ["compound", "unit label", "Cmax"],
 "data": [
  ["NC(=O)N1c2ccccc2C[C@H](O)c2ccccc21 [eslicarbazepine]", "ng/mL", 35900]
]}

* * *

procedure summary: Trial B: pharmacokinetics following single and repeated doses in healthy young male subjects
Format: in vivo, humans
condition summary: male, human, in vivo, oral, 800 mg, last dose of 8-day repeated 800 mg o.d. eslicarbazepine acetate, n=6; read-out: Mean apparent t½ (%CV) (converted)
Method: The study integrated the results of three double-blind, randomized, placebo-controlled trials. […] The pharmacokinetics of eslicarbazepine acetate following repeated doses were measured by administering repeated oral doses ranging from 400 mg to 2400 mg of eslicarbazepine acetate to healthy young male subjects (6 subjects per dose) over a period of 8 days. […]

{"columns": ["compound", "unit label", "half-life"],
 "data": [
  ["NC(=O)N1c2ccccc2C[C@H](O)c2ccccc21 [eslicarbazepine]", "h", 12.3]
]}

* * *

procedure summary: Trial B: pharmacokinetics following single and repeated doses in healthy young male subjects
Assay type: in vivo, humans
condition summary: male, human, in vivo, oral, 400 mg, single dose 400 mg eslicarbazepine acetate, n=6; read-out: Mean AUC0-24h (%CV)
observed property: AUC(0-t) (ng·h/mL)

{"columns": ["compound", "number"],
 "data": [
  ["NC(=O)N1c2ccccc2C[C@H](O)c2ccccc21 [eslicarbazepine]", 81500]
]}

* * *

procedure summary: Trial B: pharmacokinetics following single and repeated doses in healthy young male subjects
Format: in vivo, humans
condition summary: male, human, plasma, oral, 2400 mg, single dose 2400 mg eslicarbazepine acetate, n=6; read-out: Mean AUC0-24h (%CV)
Method: The study integrated the results of three double-blind, randomized, placebo-controlled trials. […] The pharmacokinetics of eslicarbazepine acetate following repeated doses were measured by administering repeated oral doses ranging from 400 mg to 2400 mg of eslicarbazepine acetate to healthy young male subjects (6 subjects per dose) over a period of 8 days. […]

{"columns": ["compound", "AUC(0-t) (ng·h/mL)"],
 "data": [
  ["NC(=O)N1c2ccccc2C[C@H](O)c2ccccc21 [eslicarbazepine]", 446]
]}

* * *

procedure summary: Trial B: pharmacokinetics following single and repeated doses in healthy young male subjects
Format: in vivo, humans
condition summary: male, human, in vivo, oral, 1200 mg, last dose of 8-day repeated 1200 mg o.d. eslicarbazepine acetate, n=6; read-out: Mean AUC0-24h (%CV)

{"columns": ["compound", "AUC(0-t) / µg·h/mL"],
 "data": [
  ["NC(=O)N1c2ccccc2C[C@H](O)c2ccccc21 [eslicarbazepine]", 423]
]}
